Measured values drawn from patent US20230050440A1 for this set.

- measured-on: T1, cynomolgus monkey TIGIT expressed on cells (cynomolgus monkey)
- T1 construct: HEK 293 cells stably expressing cynomolgus monkey TIGIT or cynomolgus T cells; also called Cyno TIGIT HEK
- procedure-details: flow cytometry titration, HEK 293 cells expressing cynomolgus TIGIT
EC50 listing for selected binders.
The reply should be a number in µg/mL, with the unit left off.

[ask] Any idea what its EC50 is? The binder is Clone 2 (antibody, V domains shown, Fully human IgG produced in yeast; also called anti-TIGIT antibody clone 2) VH: EVQLVESGGGLVQPGGSLRLSCAASGFTFSDHYMDWVRQAPGKGLEWVGRTRNKANSYTTEYAASVKGRFTISRDDSKNSLYLQMNSLKTEDTAVYYCARGQYYYGSSSRGYYYMDVWGQGTTVTVSS VL: EIVLTQSPGTLSLSPGERATLSCRASQSVSSSYLAWYQQKPGQAPRLLIYGASSRATGIPDRFSGSGSGTDFTLTISRLEPEDFAVYYCQQAVPSPLTFGGGTKVEIK
[reply] 0.32

Others:
[ask] What value of EC50 has been recorded for this entry: Clone 16 (antibody, V domains shown, Fully human IgG produced in yeast) VH: QVQLVQSGAEVKKPGSSVKVSCKASGGTFSSYAISWVRQAPGQGLEWMGGIIPIFGTASYAQKFQGRVTITADESTSTAYMELSSLRSEDTAVYYCARQSTWHKLYGTDVWGQGTTVTVSS VL: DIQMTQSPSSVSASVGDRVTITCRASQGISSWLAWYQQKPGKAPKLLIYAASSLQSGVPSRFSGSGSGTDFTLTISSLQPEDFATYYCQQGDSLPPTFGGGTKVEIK
[reply] 0.1

[ask] Which EC50 value belongs to Clone 25 (antibody, V domains shown, Fully human IgG produced in yeast; also called anti-TIGIT clone 25) VH: QVQLVQSGAEVKKPGASVKVSCKASGYTFTSYAISWVRQAPGQGLEWMGWISAYNGNTNYAQKLQGRVTMTTDTSTSTAYMELRSLRSDDTAVYYCARDLSSFWSGDVLGAFDIWGQGTMVTVSS VL: DIQMTQSPSSLSASVGDRVTITCRASQSISSYLNWYQQKPGKAPKLLIYAASSLQSGVPSRFSGSGSGTDFTLTISSLQPEDFATYYCQQSVPPRTFGGGTKVEIK ?
[reply] 0.19

[ask] Could you tell me which EC50 is on file for Clone 54 (antibody, V domains shown, Fully human IgG produced in yeast) VH: QVQLVQSGAEVKKPGASVKVSCKASGYTFTSYYMHWVRQAPGQGLEWMGIINPSGGSTSYAQKFQGRVTMTRDTSTSTVYMELSSLRSEDTAVYYCARASDSYGVGLYYGMDVWGQGTTVTVSS VL: EIVLTQSPGTLSLSPGERATLSCRASQSVRSSYLAWYQQKPGQAPRLLIYGASSRATGIPDRFSGSGSGTDFTLTISRLEPEDFAVYYCQQYYVSPLTFGGGTKVEIK ?
[reply] 11.4
